# Assayed Target: T1, recombinant human soluble gpNMB (recombinant human gpNMB-FLAG-His) (human, UniProt Q14956 23-498)
# T1 sequence: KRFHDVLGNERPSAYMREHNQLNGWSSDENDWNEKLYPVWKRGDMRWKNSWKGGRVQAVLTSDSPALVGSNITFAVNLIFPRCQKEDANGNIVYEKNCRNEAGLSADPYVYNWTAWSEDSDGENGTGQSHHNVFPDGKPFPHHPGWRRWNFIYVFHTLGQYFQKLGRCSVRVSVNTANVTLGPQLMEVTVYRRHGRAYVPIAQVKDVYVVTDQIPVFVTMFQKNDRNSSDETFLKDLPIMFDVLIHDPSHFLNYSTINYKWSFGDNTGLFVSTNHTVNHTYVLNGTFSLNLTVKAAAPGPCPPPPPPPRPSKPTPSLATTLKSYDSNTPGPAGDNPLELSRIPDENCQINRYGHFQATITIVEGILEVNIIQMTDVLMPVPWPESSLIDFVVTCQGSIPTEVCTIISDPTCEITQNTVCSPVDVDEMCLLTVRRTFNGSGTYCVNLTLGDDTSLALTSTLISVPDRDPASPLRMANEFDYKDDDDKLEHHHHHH
# Experiment Description: antigen ELISA, vs hGPN18-2_H2L3
Relative binding activity reference
API note: the answer field is a bare number with no unit suffix.

>>> assay_result("hGPN18-2_H2L3 VL V56A (antibody, V domains shown) VH: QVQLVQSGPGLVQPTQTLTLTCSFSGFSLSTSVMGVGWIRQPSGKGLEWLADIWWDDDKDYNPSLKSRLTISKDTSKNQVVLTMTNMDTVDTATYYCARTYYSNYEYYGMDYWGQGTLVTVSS VL: DIVMTQSPDSLAVSLGERATINCRSSQTIILSNGNTYLEWYQQKPGQPPKLLIYKASNRFSGVPDRFSGSGSGTDFTLTISSLQAEDVAVYYCFQGSHVPFTFGSGTKLEIKR")
1.07

# input Which measured Relative binding activity value corresponds to hGPN18-2_H2L3 VL G34A (antibody, V domains shown) VH: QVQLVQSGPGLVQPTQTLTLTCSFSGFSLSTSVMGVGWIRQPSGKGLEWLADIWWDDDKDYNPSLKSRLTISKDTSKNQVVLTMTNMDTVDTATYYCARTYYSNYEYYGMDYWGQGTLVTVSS VL: DIVMTQSPDSLAVSLGERATINCRSSQTIILSNANTYLEWYQQKPGQPPKLLIYKVSNRFSGVPDRFSGSGSGTDFTLTISSLQAEDVAVYYCFQGSHVPFTFGSGTKLEIKR ?
# output 1

# input Which measured Relative binding activity value corresponds to hGPN18-2_H2L3 VL L38A (antibody, V domains shown) VH: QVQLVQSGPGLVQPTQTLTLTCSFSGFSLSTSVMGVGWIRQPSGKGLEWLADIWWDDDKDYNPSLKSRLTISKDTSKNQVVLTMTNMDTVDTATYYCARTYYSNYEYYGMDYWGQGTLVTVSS VL: DIVMTQSPDSLAVSLGERATINCRSSQTIILSNGNTYAEWYQQKPGQPPKLLIYKVSNRFSGVPDRFSGSGSGTDFTLTISSLQAEDVAVYYCFQGSHVPFTFGSGTKLEIKR ?
# output 1.06

# input Which measured Relative binding activity value corresponds to hGPN18-2_H2L3 VL E39A (antibody, V domains shown) VH: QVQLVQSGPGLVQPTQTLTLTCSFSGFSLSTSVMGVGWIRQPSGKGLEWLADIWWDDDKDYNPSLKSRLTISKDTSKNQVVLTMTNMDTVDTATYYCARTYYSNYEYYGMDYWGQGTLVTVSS VL: DIVMTQSPDSLAVSLGERATINCRSSQTIILSNGNTYLAWYQQKPGQPPKLLIYKVSNRFSGVPDRFSGSGSGTDFTLTISSLQAEDVAVYYCFQGSHVPFTFGSGTKLEIKR ?
# output 0.1

# input Which measured Relative binding activity value corresponds to hGPN18-2_H2L3 VL I29A (antibody, V domains shown) VH: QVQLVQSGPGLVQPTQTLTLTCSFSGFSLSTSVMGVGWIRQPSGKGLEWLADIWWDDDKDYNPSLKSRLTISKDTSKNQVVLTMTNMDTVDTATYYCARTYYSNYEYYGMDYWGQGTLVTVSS VL: DIVMTQSPDSLAVSLGERATINCRSSQTAILSNGNTYLEWYQQKPGQPPKLLIYKVSNRFSGVPDRFSGSGSGTDFTLTISSLQAEDVAVYYCFQGSHVPFTFGSGTKLEIKR ?
# output 0.75

# input Which measured Relative binding activity value corresponds to hGPN18-2_H2L3 VL N35A (antibody, V domains shown) VH: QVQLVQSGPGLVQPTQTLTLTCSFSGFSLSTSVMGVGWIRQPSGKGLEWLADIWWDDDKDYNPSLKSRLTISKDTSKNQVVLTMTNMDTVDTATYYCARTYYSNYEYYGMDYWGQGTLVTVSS VL: DIVMTQSPDSLAVSLGERATINCRSSQTIILSNGATYLEWYQQKPGQPPKLLIYKVSNRFSGVPDRFSGSGSGTDFTLTISSLQAEDVAVYYCFQGSHVPFTFGSGTKLEIKR ?
# output 1.11
